meta.source: ChEMBL document CHEMBL4814011

Field: fraction unbound. Provide a value for each of the compounds that follow.
assay: Protein binding in rat plasma; format: ADME, cell-free; conditions: read-out: PPB (converted)

Example compounds with recorded fraction unbound:
- molecule: "CCN(CCCNC[C@H](O)c1ccc(O)c2[nH]c(=O)ccc12)C(=O)c1ccc(COc2cccc(-c3ccc([C@@H](NC(=O)O[C@H]4CN5CCC4CC5)c4ccccc4)cc3)c2)cc1"
  fraction unbound: 0.06
- molecule: "O=C(N[C@@H](c1ccccc1)c1ccc(-c2cccc(OCc3ccc(C(=O)N(CCCNC[C@H](O)c4ccc(O)c5[nH]c(=O)ccc45)Cc4ccccc4)cc3)c2)cc1)O[C@H]1CN2CCC1CC2"
  fraction unbound: 0.03

Lab note: next compound to report on.
Query: fraction unbound; subject: "O=C(N[C@@H](c1ccccc1)c1ccc(-c2cccc(OCc3ccc(C(=O)NCCCNC[C@H](O)c4ccc(O)c5[nH]c(=O)ccc45)cc3)c2)cc1)O[C@H]1CN2CCC1CC2" 0.05
